Tested on: Leishmania donovani
Assay: Antileishmanial activity against Leishmania donovani promastigotes after 48 hrs by Alamar blue assay
Assay type: functional, organism-based
metric_name: IC90 (µg/mL)
Respond with the bare value in µg/mL.

Some solved cases for reference:
molecule	IC90 [µg/mL]
CC1(C)[C@H]2[C@@H]1CC[C@@H]1Cc3c(O)c(C=O)c(O)c(C=O)c3O[C@@]12C	40
CC(C)CC(=O)c1c(O)c(C=O)c(O)c2c1O[C@@]1(C)[C@H](CC[C@H]3[C@@H]1C3(C)C)C2	28
CC(C)C[C@H]1C[C@]2(CC[C@@H]3C[C@H]2C3(C)C)Oc2c(C=O)c(O)c(C=O)c(O)c21 [ROBUSTADIAL B]	16
CC(C)CC(=O)c1c(O)c(C=O)c2c(c1O)C[C@H]1CC[C@H]3[C@H](C3(C)C)[C@@]1(C)O2	8
CC(C)C[C@@H]1C[C@@]2(CC[C@@H]3C[C@H]2C3(C)C)Oc2c(C=O)c(O)c(C=O)c(O)c21 [ROBUSTADIAL A]	39
C[C@@H]1[C@H](O)[C@@H](C)/C=C/C=C/C=C/C=C/C=C/C=C/C=C/[C@H](O[C@@H]2O[C@H](C)[C@@H](O)[C@H](N)[C@@H]2O)C[C@@H]2O[C@](O)(C[C@@H](O)C[C@@H](O)[C@H](O)CC[C@@H](O)C[C@@H](O)CC(=O)O[C@H]1C)C[C@H](O)[C@H]2C(=O)O [AMPHOTERICIN B]	0.36
N=C(N)c1ccc(OCCCCCOc2ccc(C(=N)N)cc2)cc1 [PENTAMIDINE]	6
CC(C)CC(=O)c1c(O)c(C=O)c2c(c1O)C[C@H]1C[C@H]3C[C@H](C3(C)C)[C@@]1(CO)O2	39

# input molecule: CC(C)CC(=O)c1c(O)c(C=O)c2c(c1O)C[C@H]1C[C@H]3C[C@H](C3(C)C)[C@@]1(CCO)O2 ; wanted: its IC90
33

###

# maps each entry to its IC50
System: Plasmodium falciparum
Assay: Antimalarial activity against chloroquine-sensitive Plasmodium falciparum D6 by LDH release assay
Format: functional, organism-based
# output: number + unit

> print(dat)
                                   molecule  readout.value
1  CC(C)C[C@H]1C[C@]2(CC[C@@H]3C[C@H]2C3(C)C)Oc2c(C=O)c(O)c(C=O)c(O)c21 [ROBUSTADIAL B]      4.5 µg/mL
2  CC(C)CC(=O)c1c(O)c(C=O)c(O)c2c1O[C@@]1(C)[C@H](CC[C@H]3[C@@H]1C3(C)C)C2      3.4 µg/mL
3  C[C@@H]1CC[C@H]2[C@@H](C)C(=O)O[C@@H]3O[C@@]4(C)CC[C@@H]1[C@]32OO4 [ARTEMISININ]    0.014 µg/mL

# input molecule: CC(C)C[C@@H]1C[C@@]2(CC[C@@H]3C[C@H]2C3(C)C)Oc2c(C=O)c(O)c(C=O)c(O)c21 [ROBUSTADIAL A] ; wanted: its IC50
4.76 µg/mL

###

Tested on: SK-MEL
Test: Cytotoxicity against human SKMEL cells by neutral red assay up to 25 ug/mL
Type: functional, cell-based
Activity calls are given as the source filed them. The rule behind the calls is not given here.
metric_name: Activity

> print(dat)
                         chemical.structure  metric.name  readout.value
1  CC(C)CC(=O)c1c(O)c2c(c(C(=O)CC(C)C)c1O)O[C@@]1(CC2)[C@H]2CC[C@H](C2)C1(C)C     Activity       inactive
2  CC(C)CC(=O)c1c(O)c2c(c(C(=O)CC(C)C)c1O)O[C@@]1(CO)[C@@H](C2)C[C@H]2C[C@@H]1C2(C)C     Activity       inactive
3  CC(C)CC(=O)c1c(O)c2c(c(C(=O)CC(C)C)c1O)O[C@]1(CC2)CC[C@@H]2C[C@H]1C2(C)C     Activity       inactive
4  CC(C)CC(=O)c1c(O)c2c(c(C(=O)CC(C)C)c1O)O[C@@]1(CCO)[C@@H](C2)C[C@H]2C[C@@H]1C2(C)C     Activity       inactive
5  CC1(C)[C@H]2C[C@@H]3Cc4c(O)c(C=O)c(O)c(C=O)c4O[C@]3(CCO)[C@@H]1C2     Activity       inactive

# input compound: CC(C)CC(=O)c1c(O)c2c(c(C(=O)CC(C)C)c1O)O[C@@]1(C)[C@@H](C2)C[C@H]2C[C@@H]1C2(C)C ; wanted: its Activity
inactive

# input compound: CC(C)CC(=O)c1c(O)c(C=O)c(O)c2c1O[C@@]1(CO)[C@@H](C2)C[C@H]2C[C@@H]1C2(C)C ; wanted: its Activity
inactive

###

# maps each entry to its IC50
Test system: Vero
Assay: Cytotoxicity against african green monkey Vero cells by neutral red assay
Format: cell-based
Conditions: chlorocebus sabaeus
Respond with the bare value in µg/mL.

> print(dat)
                         chemical.structure  metric.name  units.symbol  readout.value
1  CC(C)C[C@@H]1C[C@@]2(CC[C@@H]3C[C@H]2C3(C)C)Oc2c(C=O)c(O)c(C=O)c(O)c21         IC50         µg/mL             19

Shifting focus to the compound that follows.
# input compound: CC(C)CC(=O)c1c(O)c(C=O)c2c(c1O)C[C@H]1C[C@H]3C[C@H](C3(C)C)[C@@]1(CCO)O2 ; wanted: its IC50
20

###

# maps each entry to its IC50
Tested on: BT-549
Assay: Cytotoxicity against human BT549 cells by neutral red assay
Format: functional, cell-based
Respond with the bare value in µg/mL.

Some solved cases for reference:
> print(dat)
                         chemical.structure  target.of.assay  readout.value
1  CC(C)CC(=O)c1c(O)c(C=O)c(O)c2c1O[C@@]1(CO)[C@@H](C2)C[C@H]2C[C@@H]1C2(C)C           BT-549           22.5
2  CC(C)CC(=O)c1c(O)c(C=O)c2c(c1O)C[C@H]1C[C@H]3C[C@H](C3(C)C)[C@@]1(CO)O2           BT-549             23
3  CC(C)CC(=O)c1c(O)c2c(c(C(=O)CC(C)C)c1O)O[C@@]1(CO)[C@@H](C2)C[C@H]2C[C@@H]1C2(C)C           BT-549             25
4  COc1cccc2c1C(=O)c1c(O)c3c(c(O)c1C2=O)C[C@@](O)(C(=O)CO)C[C@@H]3O[C@H]1C[C@H](N)[C@H](O)[C@H](C)O1           BT-549            0.6
5  CC1(C)[C@H]2C[C@@H]3Cc4c(O)c(C=O)c(O)c(C=O)c4O[C@]3(CO)[C@@H]1C2           BT-549             25
6  CC(C)C[C@@H]1C[C@@]2(CC[C@@H]3C[C@H]2C3(C)C)Oc2c(C=O)c(O)c(C=O)c(O)c21           BT-549             19

API: value(readout= IC50, system= BT-549, query= CC(C)C[C@H]1C[C@]2(CC[C@@H]3C[C@H]2C3(C)C)Oc2c(C=O)c(O)c(C=O)c(O)c21 )
25

API: value(readout= IC50, system= BT-549, query= CC(C)CC(=O)c1c(O)c(C=O)c2c(c1O)C[C@H]1C[C@H]3C[C@H](C3(C)C)[C@@]1(CCO)O2 )
18.5

###

Test system: BT-549
Assay: Cytotoxicity against human BT549 cells by neutral red assay
Format: functional, cell-based
# maps each entry to its IC50

Some solved cases for reference:
> print(dat)
                         chemical.structure  readout.value
1  CC(C)CC(=O)c1c(O)c2c(c(C(=O)CC(C)C)c1O)O[C@@]1(CCO)[C@@H](C2)C[C@H]2C[C@@H]1C2(C)C     > 25 µg/mL
2  CC(C)CC(=O)c1c(O)c(C=O)c(O)c2c1O[C@@]1(CCO)[C@@H](C2)C[C@H]2C[C@@H]1C2(C)C     > 25 µg/mL
3  CC1(C)[C@H]2[C@@H]1CC[C@@H]1Cc3c(O)c(C=O)c(O)c(C=O)c3O[C@@]12C     > 25 µg/mL

# input compound: CC(C)CC(=O)c1c(O)c(C=O)c2c(c1O)C[C@H]1CC[C@H]3[C@H](C3(C)C)[C@@]1(C)O2 ; wanted: its IC50
> 25 µg/mL
